Entries and their AC35
Test system: HepG2 viability, CellTiter-Glo ATP luminescence, 72 h
measurement protocol: viability loss in human hepatoma cells – cell-based, CellTiter-Glo luminescence, cherry-pick, set 2, cytotoxicity control, dose response (AID 743395)
parameter: AC35

compound	parameter	value
CC1(S(=O)(=O)O)CC(=O)c2ccccc2C1=O (stereo not given)	AC35	20.1 µM
COc1nc(-c2ccccc2)cc(-c2ccc3c(c2)OCO3)c1C#N	AC35	8.32 µM
O=C1NC(=Nc2ccc(O)cc2)S/C1=C/c1ccco1	AC35	11.7 µM
CCCC(=O)Nc1ccc2c(c1)nc(CN1CCN(C(=O)OCC)CC1)n2CC	AC35	18.9 µM
COc1ccc(S(=O)(=O)N2CC[C@@H]3[C@@H](CO)Nc4ccc(-c5cccc(C#N)c5)cc4[C@@H]32)cc1	AC35	14 µM

###

Test system: HepG2 viability, CellTiter-Glo ATP luminescence, 72 h
measurement protocol: viability loss in human hepatoma cells – cell-based, CellTiter-Glo luminescence, cherry-pick, set 2, cytotoxicity control, dose response (AID 743395)
parameter: AC35

compound	value
C[C@@H]1CN([C@H](C)CO)C(=O)c2cc(NS(=O)(=O)c3ccc(Cl)cc3)ccc2O[C@@H]1CN(C)Cc1ccc(-c2ccccc2)cc1	16.8 µM
CCOc1ccc(C)cc1S(=O)(=O)n1cnc2ccccc21	11.7 µM
Cc1ccc(C2NC(=O)c3ccccc3N2)c(C)c1 (stereo not given)	13.8 µM
COc1ccc2c3c([nH]c2c1)[C@H](CO)N(C(=O)C1CCOCC1)CC31CCN(Cc2cccc(F)c2)CC1	2.74 µM
COc1ccc(C(=O)c2ccc(N(C)C)cc2)c(OC)c1	14.9 µM
COc1ccc(C2C3=C(COC3=O)Oc3cc4c(cc32)OCO4)cc1OC (stereo not given)	10.9 µM
Cc1ccc(-c2csc3ncn(CC#N)c(=O)c23)cc1C	17.9 µM
N#C/C(=C/c1ccc(N2CCCCC2)o1)C(=O)Nc1ccc2ccccc2c1	21.1 µM
c1ccc(CCNc2nc(-c3ccccn3)nc3ccccc23)cc1	4.46 µM
O=C(CCCN1CCC(O)(c2cccc(C(F)(F)F)c2)CC1)c1ccc(F)cc1	22.2 µM

###

Tested on: HepG2 viability, CellTiter-Glo ATP luminescence, 72 h
measurement protocol: viability loss in human hepatoma cells – cell-based, CellTiter-Glo luminescence, cherry-pick, set 2, cytotoxicity control, dose response (AID 743395)
Entries and their AC35
parameter: AC35

molecule	parameter	value
COc1cc(OC)cc(-c2nc3ccccc3c(=O)n2OC(=O)c2ccc(C)c(C)c2)c1	AC35	21.5 µM
CC(C)n1cc(/C=C/c2cc[n+](C)cc2)c2ccccc21	AC35	11.2 µM
CCN1/C(=C\c2ccc3cc(C)ccc3[n+]2CC)Sc2cc(C)c(C)cc21	AC35	3.19 µM
CCOc1ccc(-c2cc(C(=O)N3CCN(c4ccccn4)CC3)c3ccccc3n2)cc1	AC35	10.9 µM
Cc1ccc(N(C)S(=O)(=O)c2ccc(-c3cnc(C4CC4)o3)cc2)cc1	AC35	8.88 µM
COc1ccc(CNC(=O)c2c(C)oc3c2C(=O)c2ccccc2C3=O)cc1	AC35	2.36 µM
CC(=NNC(=O)c1ccncc1)c1ccc2ccccc2c1O	AC35	2.59 µM
CC(C)CN(CCCNC(=O)CN1C(=O)CSc2ccc(S(=O)(=O)N3CCOCC3)cc21)CC(C)C	AC35	6.21 µM
Cc1ccc(-c2csc(Nc3ccccn3)n2)cc1	AC35	13 µM
CC(=O)Nc1cccc(-c2ccnc3c2CC(C)(C(=O)NCc2cccs2)O3)c1 (stereo unspecified)	AC35	2.49 µM
O=[N+]([O-])c1ccc(N2CCOCC2)c2c1no[n+]2[O-]	AC35	8.72 µM
COc1ccc(OC)c2[nH]c(C(=O)N/N=C/c3ccccc3O)cc12	AC35	3.77 µM
C=CCCC(=O)Nc1nc(C)c(-c2csc(Nc3cc(OC)ccc3OC)n2)s1	AC35	5.68 µM
O=C(Nc1cccc(F)c1)N1CCCCN2[C@@H](CO)[C@H](c3ccc(C#Cc4ccccc4)cc3)[C@@H]2C1	AC35	9.45 µM
C=CCN1c2ccccc2[C@]23C[C@@H](C(=O)OC)N(C(=O)c4cccs4)C2=NC(C(=O)OC)=C(C(=O)OC)[C@H]13	AC35	19.1 µM
O=C(Nc1ccc(OC(F)(F)F)cc1)c1ccc2c(c1)no[n+]2[O-]	AC35	17.6 µM
C/C(=N\Nc1ncnc2sc(C)c(C)c12)c1ccccn1	AC35	0.572 µM
Cc1ccc2c(C)c3ccc4ccccc4c3c[n+]2c1	AC35	5.47 µM
Cc1cc2c(cc1S(=O)(=O)Nc1ccc(F)cc1)n(C)c(=O)c(=O)n2C	AC35	18.2 µM
O=[N+]([O-])c1ccc(/C=C/C2=NN(c3ccccc3)C(c3ccco3)C2)o1 (stereo unspecified)	AC35	15.1 µM
CC(C)Oc1ncnc2c1[nH]c1ccccc12	AC35	8.5 µM
O[Si](CCCN1CCCCC1)(c1ccc(F)cc1)C1CCCCC1 (stereo unspecified)	AC35	10.3 µM
COc1ccc(-c2ccc3oc(-c4ccc(OC)cc4)c(C#CCO)c3c2)cc1	AC35	3.2 µM
C[C@H]1CN([C@@H](C)CO)C(=O)c2cccc(NC(=O)Nc3ccc(C(F)(F)F)cc3)c2O[C@H]1CN(C)C(=O)NC1CCCCC1	AC35	11.2 µM
CCOc1ccc(C(=O)O/N=C(\N)c2ccccn2)cc1	AC35	16.5 µM
CCOC(=O)c1cc2c(=Cc3ccc(N(C)C)cc3)c3ccccc3n2[n+]1C	AC35	16.6 µM
CN1c2ccc(-c3ccc(F)cc3)cc2[C@H]2[C@H](CCN2S(=O)(=O)c2ccc(F)cc2)[C@@H]1CO	AC35	20.9 µM
CCCC#Cc1ccc([C@H]2[C@@H](CO)N3CCCCN(S(=O)(=O)c4ccccc4C)C[C@H]23)cc1	AC35	8.96 µM
COc1ccc(OC)c(Nc2cc(C)nc3ccc(C)cc23)c1	AC35	2.93 µM
Cc1nn2cc(-c3cccc(Cl)c3)cnc2c1Br	AC35	11.1 µM
CC(=NNC(=S)N(Cc1ccccn1)Cc1ccccn1)c1cnccn1	AC35	2.87 µM
CN1c2ccc(-c3ccc(F)cc3)cc2[C@H]2[C@H](CCN2S(=O)(=O)c2ccc(F)cc2)[C@H]1CO	AC35	19.5 µM
Cc1ccnc(N2C(=O)c3cccc4c([N+](=O)[O-])ccc(c34)C2=O)c1	AC35	14.9 µM
CC1(C(=O)NCc2ccccc2)Cc2c(-c3ccc(C(N)=O)cc3)ccnc2O1 (stereo unspecified)	AC35	13.8 µM
O=C(N/N=C/c1c(O)ccc2ccccc12)c1ccc(CO)nc1	AC35	5.89 µM
O=C(C1CCCCC1)N1CC(=O)N2[C@@H](CO)[C@H](c3ccc(C#Cc4cccc(F)c4)cc3)[C@@H]2C1	AC35	16.4 µM
CN1c2ccc(-c3ccc(F)cc3)cc2[C@H]2[C@H](CCN2S(=O)(=O)c2cccc(F)c2)[C@@H]1CO	AC35	17.3 µM
Cn1cccc1/C=C1\SC(=Nc2ccccc2)NC1=O	AC35	4.22 µM
N#CC1=C(N)Oc2c(ccc3cccnc23)C1c1ccccc1 (stereo unspecified)	AC35	6.64 µM
CC(C)(C)N(Cc1ccccc1)C(=O)c1cc2ccccc2o1	AC35	16.1 µM
COc1cccc(/C=N/Nc2ncnc(Cl)c2N)c1O	AC35	2.15 µM

###

Entries and their AC35
Test system: HepG2 viability, CellTiter-Glo ATP luminescence, 72 h
measurement protocol: viability loss in human hepatoma cells – cell-based, CellTiter-Glo luminescence, cherry-pick, set 2, cytotoxicity control, dose response (AID 743395)
parameter: AC35

molecule	value
COc1ccc2c3c(n(C)c2c1)[C@H](CO)N(C(=O)C1CC1)CC31CCN(Cc2cccc(F)c2)CC1	4.68 µM
Cc1cccc(N2CCN(C(=O)c3c(-c4ccccc4)noc3C)CC2)c1C	4.42 µM
CCc1ccc(-c2nc(C(N)=O)c3[nH]c(=O)n(-c4ccccc4OC)c3n2)cc1	9.05 µM
CCOc1ccc(C(=O)COC(=O)Cc2n[nH]c(=O)c3ccccc23)cc1	19.3 µM
O=C(NCCOc1ccccc1F)c1cc([N+](=O)[O-])ccc1N1CCOCC1	13.6 µM
CCc1ccc(OCc2n[nH]c(=S)n2C(C)CCCC(C)C)cc1 (stereo unspecified)	13.9 µM
Cc1ccc(C2(C)NC(=O)N(CC(=O)Nc3nc(-c4ccccn4)cs3)C2=O)cc1 (stereo unspecified)	4.46 µM
Cc1ccc(S(=O)(=O)NCCCNS(=O)(=O)c2ccc(C)cc2)cc1	20 µM
COc1ccccc1NC(=S)NN=C(C)c1ccccn1	0.0927 µM
O=c1c2ccccc2oc2cc(-c3ccc4[nH]ccc4c3)ccc12	4.72 µM
CCC(COC(=O)c1cc(OC)c(OC)c(OC)c1)(c1ccccc1)N(C)C (stereo unspecified)	18.4 µM
COc1cccc(Sc2ccccc2/C=N/NC(N)=O)c1	9.98 µM
C#C[C@]1(O)CC[C@H]2[C@@H]3CCc4cc(OC5CCCC5)ccc4[C@H]3CC[C@@]21C	21 µM
O=C(c1cc(-c2ccncc2)nc2c(Cl)cccc12)N1CCN(c2ccccc2F)CC1	8.73 µM
Nc1nc(Cl)nc2c1ncn2C1CC(O)C(CO)O1 (stereo unspecified)	4.65 µM
CO[C@@]12[C@@H]3N[C@@H]3CN1C1=C(C(=O)C(N)=C(C)C1=O)[C@@H]2COC(N)=O	9.61 µM
C[C@@H]1O[C@@H](O[C@@H]2C=C3CC[C@@H]4C(CC[C@]5(C)[C@@H](c6ccc(=O)oc6)CC[C@]45O)[C@@]3(C)CC2)[C@H](O)[C@H](O)[C@H]1O (stereo partly specified)	0.116 µM
CNc1c2cccc(C)c2nc2c(C(=O)NCCN(C)C)cccc12	0.428 µM
COc1ccc(OC)c(/C(C)=N\NC(=O)c2cc3cc(Cl)ccc3n2C)c1	14 µM
COc1cc(/C=C(\C#N)c2nc3ccccc3[nH]2)cc(OC)c1O	17.2 µM
O=C1OCC2=C1C(c1ccc3c(c1)OCO3)c1cc3c(cc1O2)OCO3 (stereo unspecified)	3.26 µM
